# TARGET_OF_ASSAY: Tyk2 (Homo sapiens (Human), UniProt P29597)
# Sequence (P29597 whole entry): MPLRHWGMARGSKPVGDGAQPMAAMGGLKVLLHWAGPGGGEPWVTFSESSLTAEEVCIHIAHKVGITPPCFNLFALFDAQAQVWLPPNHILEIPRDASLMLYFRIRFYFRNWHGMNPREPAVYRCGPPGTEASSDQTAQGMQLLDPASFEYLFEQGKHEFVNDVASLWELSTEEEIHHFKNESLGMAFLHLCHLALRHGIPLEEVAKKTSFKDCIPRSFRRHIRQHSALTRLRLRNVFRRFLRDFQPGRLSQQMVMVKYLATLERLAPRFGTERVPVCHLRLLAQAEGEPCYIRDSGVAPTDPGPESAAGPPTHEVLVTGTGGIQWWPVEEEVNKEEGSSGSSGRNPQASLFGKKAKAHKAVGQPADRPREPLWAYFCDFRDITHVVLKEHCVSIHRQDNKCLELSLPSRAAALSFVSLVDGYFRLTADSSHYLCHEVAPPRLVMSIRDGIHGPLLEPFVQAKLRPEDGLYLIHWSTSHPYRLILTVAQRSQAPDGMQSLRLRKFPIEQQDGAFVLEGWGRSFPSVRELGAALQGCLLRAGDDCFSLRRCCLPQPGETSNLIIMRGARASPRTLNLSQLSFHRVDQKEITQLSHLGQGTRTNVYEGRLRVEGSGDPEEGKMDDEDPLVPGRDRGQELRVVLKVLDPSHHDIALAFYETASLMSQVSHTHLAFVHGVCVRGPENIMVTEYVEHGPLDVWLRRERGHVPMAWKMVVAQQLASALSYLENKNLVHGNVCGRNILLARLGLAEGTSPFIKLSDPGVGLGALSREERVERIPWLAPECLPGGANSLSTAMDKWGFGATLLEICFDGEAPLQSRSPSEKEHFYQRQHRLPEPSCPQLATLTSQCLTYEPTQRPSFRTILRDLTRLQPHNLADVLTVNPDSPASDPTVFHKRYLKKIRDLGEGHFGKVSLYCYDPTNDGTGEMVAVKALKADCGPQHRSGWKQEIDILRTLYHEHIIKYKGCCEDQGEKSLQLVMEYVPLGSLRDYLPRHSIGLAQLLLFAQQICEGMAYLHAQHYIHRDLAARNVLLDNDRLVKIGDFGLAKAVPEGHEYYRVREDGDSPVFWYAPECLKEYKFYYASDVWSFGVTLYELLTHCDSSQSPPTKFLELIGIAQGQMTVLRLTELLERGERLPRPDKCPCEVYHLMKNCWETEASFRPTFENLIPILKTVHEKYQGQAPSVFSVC
# PROCEDURE_TEXT: pSTAT4 Cell Assay (MSD, NK92 cells)
# Assay type: cell-based
# MEASUREMENT_CONTEXT: MSD
pIC50: −log10 of the molar value.
MEASURED_ATTRIBUTE: pIC50

Record excerpt, results attached:
{"MOLECULE": "CCc1cc(Nc2cc(NC(C)=O)ncc2O[C@H]2C[C@@H](F)C2)nc(C(C)(F)F)n1", "pIC50": "≥ 8.00"}
{"MOLECULE": "COc1cc(COc2cnc(NC(C)=O)cc2Nc2cc(C)nc(C(C)(F)F)n2)ncn1", "pIC50": "7.00 to 8.00"}
{"MOLECULE": "CCOc1cnc(NC(=O)CC)cc1Nc1cc(C)nc(C(C)(F)F)n1", "pIC50": "7.00 to 8.00"}

As a next step, examine the molecule that follows.
Input line: For the record CC(=O)Nc1cc(Nc2cc(C)nc(C(C)(F)F)n2)c(OCC2CC(=O)N(C(C)C)C2)cn1 (stereo not shown) , what value of pIC50 is listed for Tyk2 (Homo sapiens (Human), UniProt P29597)?
Output line: 6.00 to 7.00

---

# TARGET_OF_ASSAY: Tyk2 (Homo sapiens (Human))
# PROCEDURE_TEXT: pSTAT4 Cell Assay (MSD, NK92 cells)
# Format: cell-based
# MEASUREMENT_CONTEXT: MSD
pIC50: −log10 of the molar value.
MEASURED_ATTRIBUTE: pIC50

Record excerpt, results attached:
{"COMPOUND": "COCc1ccc(-c2cnc(NC(C)=O)cc2Nc2cc(C)nc(C3CCOC3)n2)nc1 (centres unmarked) [Example 568]", "pIC50": "≥ 8.00"}
{"COMPOUND": "CC(=O)Nc1cc(Nc2cc(C)nc(C(C)(F)F)n2)c(OCC23CC(C2)C3)cn1 [Example 100]", "pIC50": "≥ 8.00"}
{"COMPOUND": "CCC(=O)Nc1cc(Nc2cc(CC)nc(C(C)(F)F)n2)c(OCCOC)cn1 [Example 88]", "pIC50": "≥ 8.00"}
{"COMPOUND": "COc1ccc(-c2cnc(NC(C)=O)cc2Nc2cc(C)nc(C(C)(F)F)n2)nc1 [Example 599]", "pIC50": "≥ 8.00"}
{"COMPOUND": "CO[C@@H](C)COc1cnc(NC(C)=O)cc1Nc1cc(OC2CC2)nc(C(C)(F)F)n1 [Example 299]", "pIC50": "≥ 8.00"}
{"COMPOUND": "COCCn1cc(-c2cc(Nc3cc(NC(C)=O)ncc3OC)nc(C(C)(F)F)n2)cn1 [Example 386]", "pIC50": "7.00 to 8.00"}

Give one value of pIC50 per listed compound.
1. CC(=O)Nc1cc(Nc2ccnc(C(C)(F)F)n2)c(-c2cc(N(C)C)ncn2)cn1 [Example 256]
2. CC(=O)Nc1cc(Nc2cc(C)nc(C(C)(F)F)n2)c(-c2cccc([C@@H]3CN(C)CCO3)n2)cn1 (single isomer, unassigned) [Example 641]
3. CC(=O)Nc1cc(Nc2ccnc(C(C)(F)F)n2)c(-c2cnc(C3CC3)cn2)cn1 [Example 694]
4. COCc1csc(-c2cnc(NC(C)=O)cc2Nc2cc(C)nc(C(C)(F)F)n2)n1 [Example 233]
5. CC(=O)Nc1cc(Nc2cc(C)nc(C(C)(F)F)n2)c(-c2ncc(CN(C)C)s2)cn1 [Example 737]

Output line:
1: ≤ 6.00; 2: ≥ 8.00; 3: 7.00 to 8.00; 4: ≥ 8.00; 5: ≥ 8.00

Give one value of pIC50 per listed compound.
1. CC(=O)Nc1cc(Nc2cc(C)nc(C(C)(F)F)n2)c(-c2nc3c(s2)CN(C)CC3)cn1 [Example 238]
2. CC(=O)Nc1cc(Nc2ccnc(C(C)(F)F)n2)c(-c2cncc(CC#N)n2)cn1 [Example 688]
3. CCOc1cnc(NC(C)=O)cc1Nc1cc(-c2cnn(CC(F)(F)F)c2)nc(C(C)(F)F)n1 [Example 309]

Output line:
≥ 8.00
6.00 to 7.00
7.00 to 8.00

---

Please provide measured IC50 for the entries that follow.
# TARGET_OF_ASSAY: JAK2 (Homo sapiens (Human))
# Sequence (O60674 whole entry): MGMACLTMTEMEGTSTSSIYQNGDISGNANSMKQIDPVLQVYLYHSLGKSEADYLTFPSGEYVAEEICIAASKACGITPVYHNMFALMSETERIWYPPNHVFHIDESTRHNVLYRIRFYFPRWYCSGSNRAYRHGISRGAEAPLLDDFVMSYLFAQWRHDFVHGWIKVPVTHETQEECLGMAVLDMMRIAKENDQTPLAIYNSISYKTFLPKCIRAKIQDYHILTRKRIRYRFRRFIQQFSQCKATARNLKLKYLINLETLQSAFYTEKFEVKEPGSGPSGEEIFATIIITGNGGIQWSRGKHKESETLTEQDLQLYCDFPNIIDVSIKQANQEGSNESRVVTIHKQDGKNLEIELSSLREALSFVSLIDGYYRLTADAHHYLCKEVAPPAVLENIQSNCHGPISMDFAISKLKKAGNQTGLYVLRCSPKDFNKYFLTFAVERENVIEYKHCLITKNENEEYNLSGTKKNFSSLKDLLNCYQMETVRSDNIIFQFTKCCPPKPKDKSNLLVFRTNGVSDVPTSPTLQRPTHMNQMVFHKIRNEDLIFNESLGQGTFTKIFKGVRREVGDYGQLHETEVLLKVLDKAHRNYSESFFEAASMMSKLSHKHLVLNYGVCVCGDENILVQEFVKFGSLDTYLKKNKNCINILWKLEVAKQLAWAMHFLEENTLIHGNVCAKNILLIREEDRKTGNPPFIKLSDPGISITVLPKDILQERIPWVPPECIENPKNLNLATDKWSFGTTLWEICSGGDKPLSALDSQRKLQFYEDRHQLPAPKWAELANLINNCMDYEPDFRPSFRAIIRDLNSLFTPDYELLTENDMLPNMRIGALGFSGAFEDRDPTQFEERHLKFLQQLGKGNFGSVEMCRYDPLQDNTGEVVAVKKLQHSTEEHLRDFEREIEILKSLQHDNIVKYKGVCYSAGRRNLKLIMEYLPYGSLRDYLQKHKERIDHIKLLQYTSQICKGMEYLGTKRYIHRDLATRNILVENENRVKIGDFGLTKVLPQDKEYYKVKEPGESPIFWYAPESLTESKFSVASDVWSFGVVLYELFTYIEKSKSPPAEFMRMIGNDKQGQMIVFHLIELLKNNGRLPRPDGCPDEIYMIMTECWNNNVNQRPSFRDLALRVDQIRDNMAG
# PROCEDURE_TEXT: pSTAT5 Cell Assay (MSD, TF1 cells)
# Type: cell-based
# MEASUREMENT_CONTEXT: IL-3 stimulated, MSD

{"COMPOUND": "CC(=O)Nc1cc(Nc2cc(C)nc(C34COC(C3)C4)n2)c(-c2ccn(C)n2)cn1 [Example 552]", "IC50": "≥ 1000 nM"}
{"COMPOUND": "CCc1cc(Nc2cc(NC(C)=O)ncc2-c2ccc(COC)cn2)nc(C23COC(C2)C3)n1 [Example 566]", "IC50": "≥ 1000 nM"}
{"COMPOUND": "CC(=O)Nc1cc(Nc2ccnc(C(C)(F)F)n2)c(-c2cnn(C(C)C)n2)cn1 [Example 708]", "IC50": "≥ 1000 nM"}
{"COMPOUND": "CC(=O)Nc1cc(Nc2cc(C)nc(C(C)(F)F)n2)c(-c2ncc(OC(F)F)cn2)cn1 [Example 660]", "IC50": "≥ 1000 nM"}
{"COMPOUND": "CC(=O)Nc1cc(Nc2cc(C)nc(C(C)(F)F)n2)c(-c2ncccn2)cn1 [Example 668]", "IC50": "≥ 1000 nM"}
{"COMPOUND": "CC(=O)Nc1cc(Nc2cc(C)nc(C(C)(F)F)n2)c(-c2cnccn2)cn1 [Example 620]", "IC50": "≥ 1000 nM"}
{"COMPOUND": "CC(=O)Nc1cc(Nc2cc(C)nc(C(C)(F)F)n2)c(OC[C@H]2C[C@@H]2F)cn1 (racemic) [Example 426]", "IC50": "≥ 1000 nM"}

As a next step, examine the compound that follows.
Input line: For the record CC(=O)Nc1cc(Nc2ccnc(C(C)(F)F)n2)c(-c2cn(C)c(C#N)n2)cn1 [Example 707] , what value of IC50 is listed for JAK2 (Homo sapiens (Human))?
Output line: ≥ 1000 nM

---

# TARGET_OF_ASSAY: UniProt:P29597
# PROCEDURE_TEXT: pSTAT4 Cell Assay (MSD, NK92 cells)
# Type: cell-based
# MEASUREMENT_CONTEXT: MSD
MEASURED_ATTRIBUTE: IC50

Record excerpt, results attached:
{"MOLECULE": "COCCOc1nc(C)cc(Nc2cc(NC(C)=O)ncc2-c2ccn(C)n2)n1", "TARGET_OF_ASSAY": "UniProt:P29597", "VAL": "10 to 100 nM"}
{"MOLECULE": "CCOc1cnc(NC(C)=O)cc1Nc1cc(-c2cncc(C)c2)nc(C(C)(F)F)n1", "TARGET_OF_ASSAY": "UniProt:P29597", "VAL": "10 to 100 nM"}
{"MOLECULE": "CC(=O)Nc1cc(Nc2cc(C)nc(C(C)(F)F)n2)c(-c2ccc([C@H]3COCCN3C)cn2)cn1 (single isomer, unassigned)", "TARGET_OF_ASSAY": "UniProt:P29597", "VAL": "≤ 10 nM"}
{"MOLECULE": "CC(=O)Nc1cc(Nc2cc(C)nc(C(C)(F)F)n2)c(-c2ccc(C#N)cn2)cn1", "TARGET_OF_ASSAY": "UniProt:P29597", "VAL": "≤ 10 nM"}
{"MOLECULE": "CCc1cc(Nc2cc(NC(C)=O)ncc2-c2ncn(C)n2)nc(C(C)(F)F)n1", "TARGET_OF_ASSAY": "UniProt:P29597", "VAL": "10 to 100 nM"}
{"MOLECULE": "COCCOc1cc(Nc2cc(NC(C)=O)ncc2-c2ccn(C)n2)nc(C(C)(F)F)c1", "TARGET_OF_ASSAY": "UniProt:P29597", "VAL": "≤ 10 nM"}
{"MOLECULE": "COc1cnc(C(C)(F)F)nc1Nc1cc(NC(C)=O)ncc1C1CC1", "TARGET_OF_ASSAY": "UniProt:P29597", "VAL": "≥ 1000 nM"}
{"MOLECULE": "CCc1cc(Nc2cc(NC(C)=O)ncc2OCCCOC)nc(C(C)(F)F)n1", "TARGET_OF_ASSAY": "UniProt:P29597", "VAL": "10 to 100 nM"}

Give one value of IC50 per listed molecule.
1. COC(=O)Nc1cc(Nc2cc(OC3CC3)nc(C(C)(F)F)n2)c(OCCN(C)C)cn1
2. COCc1cccc(-c2cnc(NC(C)=O)cc2Nc2cc(C)nc(C(C)(F)F)n2)n1
3. CC(=O)Nc1cc(Nc2cc(C)nc(C(C)(F)F)n2)c(-c2cnc(N(C)C)cn2)cn1
4. COCCOc1ccc(-c2cnc(NC(C)=O)cc2Nc2ccnc(C(C)(F)F)n2)nc1
5. CCc1cc(Nc2cc(NC(C)=O)ncc2-c2coc(C)n2)nc(C(C)(F)F)n1

Output line:
1. 10 to 100 nM
2. ≤ 10 nM
3. 10 to 100 nM
4. ≤ 10 nM
5. ≤ 10 nM
